- Experimental System: Tubulin
- Test Name: Inhibition of tubulin polymerization (unknown origin) assessed as decrease in fluorescence intensity incubated for 90 mins by DAPI staining based microplate reader analysis
- Assay type: protein-complex assay, Homo sapiens
Endpoint: IC50 (µM)
Write down the numeric answer in µM and omit the unit.

Prompt: Recorded IC50 for COc1ccc2c(/C=C(\C)C(=O)c3cc(OC)c(OC)c([Se]C)c3)c[nH]c2c1 with Tubulin, please?
Completion: 0.81

====

- Test Name: Selectivity ratio, ratio of IC50 for cytotoxicity against human HLF cells to IC50 for antiproliferative activity against human MHCC97H cells
- Assay type: toxicity, cell-based
- Condition: HLF cells versus MHCC97H cells, read-out: Ratio IC50
Endpoint: selectivity ratio

Prompt: Can you share its selectivity ratio? I mean this compound: COc1ccc2c(/C=C(\C)C(=O)c3cc(OC)c(OC)c([Se]C)c3)c[nH]c2c1
Completion: 394
